Where do these numbers come from? They come from PubChem BioAssay AID1159580.

experiment: chemical genetic growth profiling, strain panel (AID 1159580);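 further: tested at 20 µM; growth read once vehicle control cultures reached saturation at 30 °C; 1 = growth at the plate median or of vehicle wells; lower values mean less growth of the strain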
settings: S. cerevisiae deletion strains, growth OD, locus YKR026C, strain gcn3, stronger effect = lower value
The campaign covered roughly 5,500 compounds. About 2,000 (36%) were called active. Not shown: some 18% with an inconclusive outcome. This is one part of the list.
Mark each entry yes if its normalized growth sits below 1, and no for all others.

- compound: "CC1CCC(NC(=O)N(CCCl)N=O)CC1 (stereo unspecified)"
  category_label: "yes"
- compound: "COc1ccnc(CS(=O)c2nc3ccc(OC(F)F)cc3[nH]2)c1OC (stereo unspecified)"
  category_label: "no"
- compound: "CC(=O)C1CCC2C3CCC4C[C@H](O)CCC4(C)C3C[C@H](O)C12C (stereo partly specified)"
  category_label: "yes"
- compound: "Oc1c(Cl)cc(Cl)c(Cl)c1Cc1c(O)c(Cl)cc(Cl)c1Cl"
  category_label: "yes"

---

experiment: chemical genetic growth profiling, strain panel (AID 1159580)
settings: S. cerevisiae deletion strains, growth OD, locus YDR069C, strain doa4, stronger effect = lower value
Among all 5,500 compounds or so, about 2,000 (36%) were called active. Inconclusive results (about 18%) are left out. The list shows a part of the results. Where a SMILES comes first, the peptide text is derived from it.
Overview of reported normalized growth across a group of molecules:
property_name: normalized growth

- molecule: "CC(=O)N[C@@H](CC(=O)O)C(=O)N[C@@H](CCC(=O)O)C(=O)O (Ac-Asp-Glu-OH)"
  result: 1
- molecule: "C[C@]12C=CC(=O)C=C1CCC1C2[C@@H](O)C[C@@]2(C)C1CC[C@]2(O)C(=O)CO (stereo partly drawn)"
  result: 0.996
- molecule: "CC(=O)OC/C=C(\\C)CC/C=C(\\C)CC/C=C(\\C)CC/C=C(\\C)CC/C=C(\\C)CC/C=C(\\C)CC/C=C(\\C)CC/C=C(\\C)CCC=C(C)C"
  result: 0.978
- molecule: "COc1ccc(CCC(=O)c2c(O)cc(O[C@@H]3O[C@H](CO)C(O)[C@H](O)C3O[C@@H]3O[C@@H](C)[C@H](O)[C@@H](O)[C@H]3O)cc2O)cc1O (stereo partly drawn)"
  result: 1.04
- molecule: "COc1ccc(-c2oc3cc(OC)c(OC)c(OC)c3c(=O)c2OC)cc1OC"
  result: 0.972
- molecule: "COc1cc(C)c2c(=O)cc(-c3ccccc3)oc2c1"
  result: 0.941
- molecule: "CC(=O)N[C@@H](CCC(=O)O)C(=O)O"
  result: 1.03
- molecule: "COC(=O)[C@@H]1OC(=O)C2OC23[C@@]1(C)CCC1[C@]2(C)C(C[C@@H](O)[C@]13C)C(C)(C)[C@H](OC(C)=O)C[C@@H]2OC(C)=O (stereo partly drawn)"
  result: 1.01

---

Each entry below carries its reported normalized growth.
experiment: chemical genetic growth profiling, strain panel (AID 1159580);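 further: tested at 20 µM; growth read once vehicle control cultures reached saturation at 30 °C; 1 = growth at the plate median or of vehicle wells; lower values mean less growth of the strain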
settings: S. cerevisiae deletion strains, growth OD, locus YER155C, strain BEM2 (second series), stronger effect = lower value
Among all 5,500 compounds or so, about 2,000 (36%) were called active. About 18% were inconclusive and are not listed. The list shows a part of the results.

- cpd_smiles: "COP(=S)(OC)Oc1ccc(Sc2ccc(OP(=S)(OC)OC)cc2)cc1"
  normalized growth: 1
- cpd_smiles: "COP(=S)(OC)Oc1ccc([N+](=O)[O-])cc1"
  normalized growth: 0.94
- cpd_smiles: "C1N2CN3CN1CN(C2)C3"
  normalized growth: 0.991

---

experiment: chemical genetic growth profiling, strain panel (AID 1159580);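 further: tested at 20 µM; growth read once vehicle control cultures reached saturation at 30 °C; 1 = growth at the plate median or of vehicle wells; lower values mean less growth of the strain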
settings: S. cerevisiae deletion strains, growth OD, locus YOL147C, strain pex11, stronger effect = lower value
The whole screen tested about 5,500 compounds, of which about 2,000 (36%) were called active. Roughly 18% stayed inconclusive and do not appear here. The list shows a part of the results.

- compound: "COc1ccc(-c2cc(=O)c3c(OC)cc(OC)cc3o2)cc1"
  normalized growth: 0.989
- compound: "Cc1nnc(NS(=O)(=O)c2ccc(N)cc2)s1"
  normalized growth: 0.986
- compound: "NC(N)=NCCCCN=C(N)N"
  normalized growth: 0.993
- compound: "CC(=O)OCC(=O)[C@@]1(O)CCC2C3CCC4=CC(=O)C=CC4(C)C3[C@@H](O)C[C@@]21C (stereo partly specified)"
  normalized growth: 1.01
- compound: "COc1cc(C)c2c(=O)cc(-c3ccccc3)oc2c1"
  normalized growth: 0.97
- compound: "Clc1ccc(C(c2ccccc2Cl)C(Cl)Cl)cc1 (stereo unspecified)"
  normalized growth: 0.991
- compound: "CC(=O)O[C@@H]1CC2C(C)(C)[C@H](O)CC[C@]2(C)C2CC[C@@]3(C)[C@H](c4ccoc4)OC(=O)C4OC43[C@@]21C (stereo partly specified)"
  normalized growth: 0.992
- compound: "CC(=O)O[C@H]1CC[C@@]2(C)C(C[C@@H](OC(C)=O)[C@]3(C)C2CC[C@@]2(C)[C@H](c4ccoc4)OC(=O)[C@H]4O[C@]423)C1(C)C (stereo partly specified)"
  normalized growth: 1.01
- compound: "CC(=O)O[C@@H]1CC2C(C)(C)[C@@H](O)CC[C@]2(C)C2CC[C@@]3(C)[C@H](c4ccoc4)OC(=O)[C@H]4O[C@]43[C@@]21C (stereo partly specified)"
  normalized growth: 0.996
- compound: "CC(=O)O[C@@H]1CC2C(C)(C)C(=O)C3OC3[C@]2(C)C2CC[C@@]3(C)[C@H](c4ccoc4)OC(=O)C4OC43[C@@]21C (stereo partly specified)"
  normalized growth: 1.01
- compound: "NCC[C@@H](O)C(=O)N[C@@H]1C[C@H](N)[C@@H](O[C@H]2O[C@H](CN)[C@@H](O)[C@H](O)[C@H]2O)[C@H](O)[C@H]1O[C@H]1O[C@H](CO)[C@@H](O)[C@H](N)C1O (stereo partly specified)"
  normalized growth: 1.02
- compound: "CC(=O)OC1CC(OC(C)=O)C2(C)C(CC(OC(C)=O)C3(C)C2CCC2(C)C(c4ccoc4)OC(=O)C4OC423)C1(C)C (stereo unspecified)"
  normalized growth: 0.996
- compound: "NC(N)=NCCN1CCCCCCC1"
  normalized growth: 1.02
- compound: "COC(=O)/C(C)=C\\CC12OC(C)(C)C3CC(C=C4C(=O)c5c(OC)c6c(c(CC=C(C)C)c5OC431)OC(C)(CCC=C(C)C)C=C6)C2=O (stereo unspecified)"
  normalized growth: 0.991
- compound: "CC1(C)C(=O)[C@@H]2O[C@@H]2[C@@]2(C)C1C[C@@H](O)[C@]1(C)C2CC[C@@]2(C)[C@H](c3ccoc3)OC(=O)C3OC321 (stereo partly specified)"
  normalized growth: 0.988
- compound: "C=C[C@@]1(C)CC(=O)[C@@]2(O)[C@](C)(O1)[C@@H](OC(C)=O)[C@@H](O)C1C(C)(C)CC[C@H](O)[C@@]12C (stereo partly specified)"
  normalized growth: 0.999

---

experiment: chemical genetic growth profiling, strain panel (AID 1159580);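 further: tested at 20 µM; growth read once vehicle control cultures reached saturation at 30 °C; 1 = growth at the plate median or of vehicle wells; lower values mean less growth of the strain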
settings: S. cerevisiae deletion strains, growth OD, locus YMR125W, strain sto1
Screen size: about 5,500 compounds; about 2,000 (36%) were called active. Inconclusive results (about 18%) are left out. Rule as the data show it: active = normalized growth mostly below about 0.91 (no sharp cut-off); inconclusive = no clear call, values can overlap the other calls; inactive = mostly above about 0.92. The list shows a part of the results.
Possible outcomes: True for active, False for inactive

- compound: "Cc1ccc(C(=O)c2ccc(CC(=O)O)n2C)cc1"
  category_label: "False"
- compound: "O=c1oc2ccccc2cc1O"
  category_label: "False"
- compound: "Clc1ccc(COC(Cn2ccnc2)c2ccc(Cl)cc2Cl)cc1 (stereo not given)"
  category_label: "True"
- compound: "Cc1oncc1C(=O)Nc1ccc(C(F)(F)F)cc1"
  category_label: "False"
- compound: "Clc1ccc(COC(Cn2ccnc2)c2ccc(Cl)cc2Cl)c(Cl)c1 (stereo not given)"
  category_label: "True"
- compound: "Cc1cc(CC(=O)O)n(C)c1C(=O)c1ccc(Cl)cc1"
  category_label: "False"
- compound: "O=C1CCCN1CC#CCN1CCCC1"
  category_label: "False"
- compound: "Clc1ccc(C(Cn2ccnc2)OCc2ccsc2Cl)c(Cl)c1 (stereo not given)"
  category_label: "True"
- compound: "CC(=O)O[C@H]1C[C@@]2(C)[C@@H](C[C@@H](O)C3[C@]2(C)CC[C@H]2[C@H](C)[C@H](O)CC[C@]32C)/C1=C(/CCC=C(C)C)C(=O)O (stereo not given in full)"
  category_label: "False"
- compound: "CC[C@@H]1OC(=O)C[C@@H](O)[C@H](C)[C@@H](O[C@@H]2O[C@H](C)[C@@H](O)[C@H](N(C)C)[C@H]2O)[C@@H](CCN2C[C@H](C)C[C@H](C)C2)C[C@@H](C)C(=O)/C=C/C(C)=C\\[C@@H]1CO[C@@H]1O[C@H](C)[C@@H](O)[C@@H](OC)[C@H]1OC"
  category_label: "False"
